Cited source: patent US20190308994A1

# method: Equilibrium solubility of crisaborole in solvents by HPLC
# Assay type: physicochemical
# reported.conditions: organic solvent or mixture, thermodynamic from solid; in Polyethylene Glycol (PEG) 400, USP; read-out: Solubity by HPLC
recorded.metric: solubility (mg/mL)
Quick note: give the figure in mg/mL, leave out the unit.

[ask] Return solubility (reported value) for this compound: N#Cc1ccc(Oc2ccc3c(c2)COB3O)cc1 [Crisaborole Form II]
[reply] 164

---

# method: Equilibrium solubility of crisaborole in solvents by HPLC
# Assay type: physicochemical
# reported.conditions: oil or lipid, thermodynamic from solid; in Ethylhexyl Hydroxystearate; read-out: Solubity by HPLC
recorded.metric: solubility (mg/mL)
Quick note: give the figure in mg/mL, leave out the unit.

[ask] Return solubility (reported value) for this molecule: N#Cc1ccc(Oc2ccc3c(c2)COB3O)cc1 [Crisaborole Form II]
[reply] 21
